Test system: A549
experiment notes: Cytotoxicity against human A549 cells assessed as cell viability at 1 uM after 24 hrs by MTT assay
Type: functional
test parameters: A549, 24 h, read-out: Activity

{"chemical smiles": "COc1cc2c(cc1OCCCCNC(=O)c1cc(OC)c(OC)c(OC)c1)N=C[C@@H]1CCCN1C2=O", "viability at 1 µM": "100%"}
{"chemical smiles": "COc1cc2c(cc1OCCCCCCOc1cc(OC)c(OC)c(OC)c1)N=C[C@@H]1CCCN1C2=O", "viability at 1 µM": "101%"}
{"chemical smiles": "COc1cc2c(cc1OCCCOc1cc(OC)c(OC)c(OC)c1)N=C[C@@H]1CCCN1C2=O", "viability at 1 µM": "88.7%"}
{"chemical smiles": "COc1cc2c(cc1OCCCNC(=O)c1cc(OC)c(OC)c(OC)c1)N=C[C@@H]1CCCN1C2=O", "viability at 1 µM": "96.1%"}

----------
System: MCF7
experiment notes: Cytotoxicity against human MCF7 cells expressing p53 wild type assessed as cell viability at 1 uM after 24 hrs by MTT assay
Assay type: functional
test parameters: MCF7, 24 h, read-out: Activity
Response field label: string, one of rule met (viability at 1 µM strictly below 90%) or rule not met.

{"chemical smiles": "COc1cc2c(cc1OCCCCOc1cc(OC)c(OC)c(OC)c1)N=C[C@@H]1CCCN1C2=O", "test target": "MCF7", "assigned category": "rule met"}
{"chemical smiles": "COc1cc2c(cc1OCCCCCOc1cc(OC)c(OC)c(OC)c1)N=C[C@@H]1CCCN1C2=O", "test target": "MCF7", "assigned category": "rule met"}
{"chemical smiles": "COc1cc2c(cc1OCCCCCCOc1cc(OC)c(OC)c(OC)c1)N=C[C@@H]1CCCN1C2=O", "test target": "MCF7", "assigned category": "rule met"}
{"chemical smiles": "COc1cc2c(cc1OCCCNC(=O)c1cc(OC)c(OC)c(OC)c1)N=C[C@@H]1CCCN1C2=O", "test target": "MCF7", "assigned category": "rule not met"}
{"chemical smiles": "COc1cc2c(cc1OCCCCCNC(=O)c1cc(OC)c(OC)c(OC)c1)N=C[C@@H]1CCCN1C2=O", "test target": "MCF7", "assigned category": "rule not met"}
{"chemical smiles": "COc1cc2c(cc1OCCCOc1cc(OC)c(OC)c(OC)c1)N=C[C@@H]1CCCN1C2=O", "test target": "MCF7", "assigned category": "rule met"}
{"chemical smiles": "COc1cc2c(cc1OCCCCCCNC(=O)c1cc(OC)c(OC)c(OC)c1)N=C[C@@H]1CCCN1C2=O", "test target": "MCF7", "assigned category": "rule not met"}
{"chemical smiles": "COc1cc2c(cc1OCCCCNC(=O)c1cc(OC)c(OC)c(OC)c1)N=C[C@@H]1CCCN1C2=O", "test target": "MCF7", "assigned category": "rule not met"}

----------
experiment notes: Cytotoxicity against human fibroblast cells expressing p53 wild type assessed as cell viability at 1 uM after 24 hrs by MTT assay
Assay type: cell-based
test parameters: read-out: Activity
measured endpoint: viability at 24 h, 1 µM (%)

{"chemical smiles": "COc1cc2c(cc1OCCCOc1cc(OC)c(OC)c(OC)c1)N=C[C@@H]1CCCN1C2=O", "reading": 97.3}
{"chemical smiles": "COc1cc2c(cc1OCCCNC(=O)c1cc(OC)c(OC)c(OC)c1)N=C[C@@H]1CCCN1C2=O", "reading": 101}
{"chemical smiles": "COc1cc2c(cc1OCCCCCCNC(=O)c1cc(OC)c(OC)c(OC)c1)N=C[C@@H]1CCCN1C2=O", "reading": 94.9}
{"chemical smiles": "COc1cc2c(cc1OCCCCCCOc1cc(OC)c(OC)c(OC)c1)N=C[C@@H]1CCCN1C2=O", "reading": 93.4}
{"chemical smiles": "COc1cc2c(cc1OCCCCOc1cc(OC)c(OC)c(OC)c1)N=C[C@@H]1CCCN1C2=O", "reading": 109}
{"chemical smiles": "COc1cc2c(cc1OCCCCNC(=O)c1cc(OC)c(OC)c(OC)c1)N=C[C@@H]1CCCN1C2=O", "reading": 98.2}
{"chemical smiles": "COc1cc2c(cc1OCCCCCNC(=O)c1cc(OC)c(OC)c(OC)c1)N=C[C@@H]1CCCN1C2=O", "reading": 98.7}
{"chemical smiles": "COc1cc2c(cc1OCCCCCOc1cc(OC)c(OC)c(OC)c1)N=C[C@@H]1CCCN1C2=O", "reading": 111}

----------
Overview of reported viability at 1 µM across a group of compounds:
Test system: A549
experiment notes: Cytotoxicity against human A549 cells assessed as cell viability at 1 uM after 24 hrs by MTT assay
Format: functional
test parameters: A549, 24 h, read-out: Activity
measured endpoint: viability at 1 µM (%)

{"chemical smiles": "COc1cc2c(cc1OCCCCCOc1cc(OC)c(OC)c(OC)c1)N=C[C@@H]1CCCN1C2=O", "measured endpoint": "viability at 1 µM", "reading": 78}
{"chemical smiles": "COc1cc2c(cc1OCCCCCCNC(=O)c1cc(OC)c(OC)c(OC)c1)N=C[C@@H]1CCCN1C2=O", "measured endpoint": "viability at 1 µM", "reading": 101}
{"chemical smiles": "COc1cc2c(cc1OCCCCOc1cc(OC)c(OC)c(OC)c1)N=C[C@@H]1CCCN1C2=O", "measured endpoint": "viability at 1 µM", "reading": 77.9}
{"chemical smiles": "COc1cc2c(cc1OCCCCCNC(=O)c1cc(OC)c(OC)c(OC)c1)N=C[C@@H]1CCCN1C2=O", "measured endpoint": "viability at 1 µM", "reading": 96.8}

Value source: ChEMBL document CHEMBL3763092
